tested on: CLZ3 (HCA2 human fibroblast dual HR-NHEJ reporter); test: HR repair efficiency (tdTomato+ cells) relative to control (log10 fold); higher = more homologous recombination; details: 5 µM; doxycycline 0.5 ug/mL
readout.type: HR repair efficiency (log10)
Enter a number only.

compound: C=C1C[C@@]2(O)O[C@@]3(C[C@H]2C(C)C)[C@@H](C)CC[C@@H]13 [Curcumol]
target.desc: CLZ3 (HCA2 human fibroblast dual HR-NHEJ reporter);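 also: compound given one day before doxycycline, which switches on I-SceI endonuclease expression to create double-strand breaks within the integrated reporter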
HR repair efficiency (log10): 0.163

COc1cc2ccc(=O)oc2cc1OC [Scoparone] has a reported HR repair efficiency (log10) of 0.0853

GET /value?item= O=C(C=Cc1ccc(O)c(O)c1)O[C@H]1[C@H](O)C[C@](O)(C(=O)O)C[C@H]1OC(=O)C=Cc1ccc(O)c(O)c1 [Isochlorogenic Acid C (4,5-Di-O-Caffeoylquinic Acid)] &field=HR repair efficiency (log10) returns -0.0644

Given item COc1ccc([C@H]2OC[C@H]3[C@@H]2CO[C@H]3c2ccc(O[C@@H]3O[C@H](CO)[C@@H](O)[C@H](O)[C@H]3O)c(OC)c2)cc1OC [Phillyrin] , the value recorded as its HR repair efficiency (log10) is -0.0538
